# target_or_system: T1, alpha-s1 casein from Bos taurus
# T1 chain: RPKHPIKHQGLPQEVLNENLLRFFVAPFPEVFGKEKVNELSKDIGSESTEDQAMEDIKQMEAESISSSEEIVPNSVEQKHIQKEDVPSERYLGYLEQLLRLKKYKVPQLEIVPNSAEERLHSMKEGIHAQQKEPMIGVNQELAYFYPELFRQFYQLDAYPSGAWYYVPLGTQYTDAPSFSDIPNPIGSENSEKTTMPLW
value_type: small, 16 hours, 30° C. (Volume)
Return type: number; implicit unit Volume.

query: Reported small, 16 hours, 30° C. for bovine chymosin B variant #74 (A51V, K221M) (protein) GEVASVPLTNYLDSQYFGKIYLGTPPQEFTVLFDTGSSDFWVPSIYCKSNVCKNHQRFDPRKSSTFQNLGKPLSIHYGTGSMQGILGYDTVTVSNIVDIQQTVGLSTQEPGDVFTYAEFDGILGMAYPSLASEYSIPVFDNMMNRHLVAQDLFSVYMDRNGQESMLTLGAIDPSYYTGSLHWVPVTVQQYWQFTVDSVTISGVVVACEGGCQAILDTGTSMLVGPSSDILNIQQAIGATQNQYGEFDIDCDNLSYMPTVVFEINGKMYPLTPSAYTSQDQGFCTSGFQSENHSQKWILGDVFIREYYSVFDRANNLVGLAKAI : what is it?
result: 5.1e+06
